From: patent US20170355757A1

Listed binders paired with reported koff
molecular target: T1, human C5 R885H-mmh (human, UniProt P01031 19-1676); experiment: SPR, mAb captured via anti-hFc, 25C
T1 construct: also called human C5 variant R885H
measure: koff (s⁻¹)

>>> reading("H4H12175P (antibody, human IgG4, V domains shown, Human IgG4 Fc with S108P hinge mutation (H4H)) VH: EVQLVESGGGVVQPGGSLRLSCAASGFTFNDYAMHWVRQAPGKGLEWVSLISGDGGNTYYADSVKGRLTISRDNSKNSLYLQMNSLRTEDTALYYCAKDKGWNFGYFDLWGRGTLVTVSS VL: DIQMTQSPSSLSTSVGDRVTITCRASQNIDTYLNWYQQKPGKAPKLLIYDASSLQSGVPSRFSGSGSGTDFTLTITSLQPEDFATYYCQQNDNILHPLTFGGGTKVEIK")
0.00198
>>> reading("H4H12168P (antibody, human IgG4, V domains shown, Human IgG4 Fc with S108P hinge mutation (H4H)) VH: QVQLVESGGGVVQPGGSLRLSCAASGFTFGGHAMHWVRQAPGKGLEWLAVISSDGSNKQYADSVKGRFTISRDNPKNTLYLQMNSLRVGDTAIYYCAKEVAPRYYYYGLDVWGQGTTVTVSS VL: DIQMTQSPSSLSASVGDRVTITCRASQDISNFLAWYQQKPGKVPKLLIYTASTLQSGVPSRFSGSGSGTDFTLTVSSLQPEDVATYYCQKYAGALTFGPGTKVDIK")
0.000214
>>> reading("H4H11683N (antibody, V domains shown, also called H2M11683N) VH: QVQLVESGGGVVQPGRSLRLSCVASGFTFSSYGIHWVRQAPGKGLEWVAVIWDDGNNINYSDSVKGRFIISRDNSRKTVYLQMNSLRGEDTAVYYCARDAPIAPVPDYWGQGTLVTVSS VL: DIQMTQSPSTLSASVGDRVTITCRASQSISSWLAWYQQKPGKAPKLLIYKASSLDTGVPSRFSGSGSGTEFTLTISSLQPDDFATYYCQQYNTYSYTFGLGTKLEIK")
0.000246
>>> reading("H4H12170P (antibody, human IgG4, V domains shown, Human IgG4 Fc with S108P hinge mutation (H4H)) VH: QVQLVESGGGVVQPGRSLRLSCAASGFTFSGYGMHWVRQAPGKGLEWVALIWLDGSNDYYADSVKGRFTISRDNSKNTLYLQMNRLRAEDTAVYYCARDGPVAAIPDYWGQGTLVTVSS VL: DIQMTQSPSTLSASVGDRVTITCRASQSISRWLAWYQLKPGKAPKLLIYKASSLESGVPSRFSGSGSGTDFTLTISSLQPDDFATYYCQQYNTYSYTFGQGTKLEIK")
0.000161
>>> reading("H4H12163P (antibody, human IgG4, V domains shown, Human IgG4 Fc with S108P hinge mutation (H4H)) VH: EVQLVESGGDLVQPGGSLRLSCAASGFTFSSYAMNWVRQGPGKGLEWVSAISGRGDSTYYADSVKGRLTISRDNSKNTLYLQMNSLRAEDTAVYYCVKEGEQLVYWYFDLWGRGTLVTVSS VL: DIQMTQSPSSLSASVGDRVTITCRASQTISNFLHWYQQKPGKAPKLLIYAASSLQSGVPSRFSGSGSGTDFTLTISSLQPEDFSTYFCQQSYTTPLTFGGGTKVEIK")
0.000434
